- Species on record: Homo sapiens
- test: Selectivity ratio of Ki for human cloned adenosine A1 receptor to Ki for human cloned adenosine A2A receptor
assayMetric: Ratio Ki

// solved cases for Ratio Ki follow
* CCN(CC)CCOc1cc(-c2nc3c([nH]2)c(=O)n(C)c(=O)n3C)ccc1OC | 70
* COc1ccc(-c2nc3c([nH]2)c(=O)n(C)c(=O)n3C)cc1OCCN(C)C | 30
* CCN(CC)CCOc1cccc(-c2nc3c([nH]2)c(=O)n(C)c(=O)n3C)c1 | 140
* COc1cc(-c2nc3c([nH]2)c(=O)n(C)c(=O)n3C)ccc1OCCN1CCCC1 | 10
* COc1cc(-c2nc3c([nH]2)c(=O)n(C)c(=O)n3C)ccc1OCCN(C)C | 100
* CCN(CC)CCOc1ccc(-c2nc3c([nH]2)c(=O)n(C)c(=O)n3C)cc1OC | 100

A. COc1cc(-c2nc3c([nH]2)c(=O)n(C)c(=O)n3C)ccc1OCCN1CCCCC1
B. COc1ccc(-c2nc3c([nH]2)c(=O)n(C)c(=O)n3C)cc1OCCN1CCCCC1
Prompt: Select the item whose Ratio Ki value is smaller, choosing between A and B . Could you answer with the label of the item you picked?
Response: B
(B: 38, A: 100)
